Each entry below lists one item and its recorded pEC50 value.
Molecular target: T1, his-tagged human CDH6 extracellular region protein (hCDH6 ECD-his) (human, UniProt P55285 19-615)
T1 construct: also called Human CDH6-his; hCDH6-his; not shown: his tag
T1 sequence: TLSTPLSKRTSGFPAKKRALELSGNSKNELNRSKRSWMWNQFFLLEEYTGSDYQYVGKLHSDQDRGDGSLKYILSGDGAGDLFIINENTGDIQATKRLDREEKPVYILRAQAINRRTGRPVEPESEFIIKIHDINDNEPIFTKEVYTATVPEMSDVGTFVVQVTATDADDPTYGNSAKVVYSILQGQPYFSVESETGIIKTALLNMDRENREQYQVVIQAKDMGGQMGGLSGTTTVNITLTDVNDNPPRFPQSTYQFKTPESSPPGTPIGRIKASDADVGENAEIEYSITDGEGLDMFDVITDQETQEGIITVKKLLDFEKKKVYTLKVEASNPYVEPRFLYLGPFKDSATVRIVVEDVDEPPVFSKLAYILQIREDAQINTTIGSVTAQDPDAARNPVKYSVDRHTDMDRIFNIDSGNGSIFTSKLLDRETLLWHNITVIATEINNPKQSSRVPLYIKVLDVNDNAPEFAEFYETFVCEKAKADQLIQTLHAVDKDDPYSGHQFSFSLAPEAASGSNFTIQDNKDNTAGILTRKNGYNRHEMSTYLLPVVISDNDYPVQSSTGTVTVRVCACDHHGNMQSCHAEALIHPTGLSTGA
Assay: ELISA, coated antigen; ELISA, hCDH6 ECD-his coated at 1 µg/mL, antibody in solution
pEC50 here is simply -log10 of the concentration when that concentration is written in mol/L.

Some solved entries appear below for comparison.
INSERT INTO results (binder, measured_quantity, reading) VALUES
  ('DS-H01L02 (antibody, human IgG1, kappa, V domains shown, Positive control, variable regions from WO2018212136A1; also called positive control anti-human CDH6 antibody) VH: EVQLVQSGAEVKKPGASVKVSCKASGYTFTRNFMHWVRQAPGQGLEWMGWIYPGDGETEYAQKFQGRVTITADTSTSTAYMELSSLRSEDTAVYYCARGVYGGFAGGYFDFWGQGTLVTVSS VL: DIQMTQSPSSLSASVGDRVTITCKASQNIYKNLAWYQQKPGKAPKLLIYDANTLQTGVPSRFSGSGSGSDFTLTISSLQPEDFATYFCQQYYSGWAFGQGTKVEIKR', 'pEC50', 9.77),
  ('CHI-CDH6-7 (antibody, human IgG1, kappa, V domains shown, also called CH1-CDH6-7; chimeric antibody of murine CDH6-7) VH: EVKLVESGGGLVKPGGSLKVSCAASGFTFSDHGMAWVRQAPGKGPEWVAFISNLAYSIYYADTVTGRFTISRENAKNTLYLEMSSLRSEDTAMYYCARVYVKWYFDVWGAGTTVTVSS VL: DIQMTQSPASLSASVGETVTITCRASENIDSYLAWYQQKQGKSPQLLVFAATLLADGVPSRFSGSGSGTQYSLKINSLQSEDVARYYCQHYYSTPLTFGAGTKLELKR', 'pEC50', 9.31);

Below: the item to evaluate.
Challenge: Tell me measured pEC50 for CHI-CDH6-4 (antibody, human IgG1, kappa, V domains shown, also called CH1-CDH6-4; chimeric antibody of murine CDH6-4) VH: QVQLQQSGPELVKPGASVKISCKASGYAFSNFWMNWVKQRPGKGLEWIGWIYPGDGDTNYNGKFKDKATLTADKSSSTAYIQLSSLTSEDSAVYFCARLYDAWGFFDYWGQGTTLTVSS VL: QIVLTQSPAIMSASPGQKVTITCSASSSVNYMHWYQQKLGSSPKLWIYDKSKLAPGVPARFSGSGSGTSYSLTISSMEAEDAASYFCHQWSSYPPMTFGGGTKLEIKR please.
Response given: 10.28
